Recorded EC50 by entry
- subject-of-test: T1, human HVEM extracellular domain fused with an Fc fragment at the C-terminus (human, UniProt Q92956 39-202)
- T1 construct: extracellular domain; Bought; also called hHVEM; not shown: Fc fragment at the C-terminus
- T1 sequence (looked up): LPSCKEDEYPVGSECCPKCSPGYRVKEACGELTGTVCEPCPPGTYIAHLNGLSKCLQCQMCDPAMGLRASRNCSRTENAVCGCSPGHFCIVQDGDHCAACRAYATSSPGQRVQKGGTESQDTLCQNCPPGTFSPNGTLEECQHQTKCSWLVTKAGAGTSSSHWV
- procedure-text: ELISA on coated target-Fc
# number only, unit µg/mL dropped from output

1) LIGHT-31 (ligand, Printed mutations: S160R, T161S, L220S; Soluble protein carries an N-terminal His tag) DGPAGSWEQLIQERRSHEVNPAAHLTGANSSLTGSGGPLLWETQLGLAFLRGLSYHDGALVVTKAGYYYIYSKVQLGGVGCPLGLARSITHGLYKRTPRYPEELELLVSQQSPCGRATSSSRVWWDSSFLGGVVHLEAGEKVVVRVSDERLVRLRDGTRSYFGAFMV ... 0.051

Proceeding to the next binder to report its EC50.
Give reported EC50 value for LIGHT-20 (ligand, Printed mutations: S160A, L220S, E222D; Soluble protein carries an N-terminal His tag) DGPAGSWEQLIQERRSHEVNPAAHLTGANSSLTGSGGPLLWETQLGLAFLRGLSYHDGALVVTKAGYYYIYSKVQLGGVGCPLGLAATITHGLYKRTPRYPEELELLVSQQSPCGRATSSSRVWWDSSFLGGVVHLEAGEKVVVRVSDDRLVRLRDGTRSYFGAFMV 0.0496
